Tested on: LXFL 529 NSCLC
METHOD_SUMMARY: NCI tumour cell line growth inhibition, 48 h
OBSERVATION_TYPE: TGI

COMPOUND	TARGET_DESC	RECORDED_RESULT
CC(=O)OCC1(C)C(OC(C)=O)CCC2(C)C(CC(OC(C)=O)C3=CCOC3=O)C(O)(CO)CCC12 (stereo not given)	LXFL 529 NSCLC	> 100 µM
CN1c2ccccc2NC(CC(=O)O)C2CC=CN21 (stereo not given)	LXFL 529 NSCLC	> 100 µM
COc1ccc(Nc2nc3c(N)cc(C(F)(F)F)cc3nc2-c2ccccc2)cc1OC	LXFL 529 NSCLC	46.4 µM
CC(=O)N(O)CCCCCNC(=O)CCC(=O)N(O)CCCCCNC(=O)CCC(=O)N(O)CCCCCN	LXFL 529 NSCLC	> 100 µM

Please examine the following record next.
Noted for CC12OC3(C)OC(=O)C(c4ccccc4)(O1)C3(C)O2 (stereo not given) : its TGI reads > 100 µM

* * *

Test system: SNB-19 CNS
METHOD_SUMMARY: NCI tumour cell line growth inhibition, 48 h; in the data active means GI50 below about 0.43 µM; inactive means the rest
Write down the outcome that applies. Available outcomes: true (1) for active, false (0) for inactive

Past entries and their recorded results:
COMPOUND	GROUP_LABEL
CCOC(=O)/C=C1/SC(N2CCCCC2)C(=O)N1CC (stereo not drawn)	false (0)
O=[N+]([O-])c1ccc2c(c1)C(=NO)c1cc([N+](=O)[O-])ccc1-2	false (0)
CC(=O)OC1Oc2ccccc2-c2oc(=O)c(-c3ccc(F)cc3)cc21 (stereo not drawn)	false (0)
CC(=N\O)/C(C)=N/O.CC(=N\O)/C(C)=N/O.CC(=N\O)/C(C)=N/O.CC(=N\O)/C(C)=N/O.[CH3-].[CH3-].[Co].[Co]	false (0)
O=c1cc(NCC(O)CN2CCOCC2)n(Cc2ccccc2)c(=O)n1Cc1ccccc1 (stereo not drawn)	false (0)
COc1ccc2nc3ccccc3c(NCc3ccc(Cl)cc3)c2c1	false (0)
COc1ccc(N2CCN(C(=O)c3ccc(C(F)(F)F)nc3Nc3cc(Cl)ccc3C)CC2)cc1	false (0)
O=C(Nc1cccc(Cl)c1)Nc1nccs1	false (0)

Read the next record carefully.
INPUT: # outcome recorded in this test, key = O=S(=O)(Nc1ccc(Cl)cc1)c1ccc(-c2cnc(C3CC3)o2)cc1
OUTPUT: false (0)

* * *

System: MDA-MB-435
Choose one outcome from this list and give only that: Yes = active, No = inactive

Reference set, count: 5
CHEMICAL_STRUCTURE	TARGET_DESC	GROUP_LABEL
O=C(N/N=C(\CN1CCN(c2cc3[nH]cc(C(=O)O)c(=O)c3cc2F)CC1)c1ccc(Cl)cc1)c1ccncc1	MDA-MB-435	No
C(=C1c2ccccc2-c2ccccc21)c1ccncc1	MDA-MB-435	No
Cc1cc(Nc2ccc3c(c2)OCO3)c2cc3c(cc2n1)OCO3	MDA-MB-435	Yes
Cc1ccc(NC2=N[C@]34CC(=O)CC[C@]3(C)[C@H]3CC[C@]5(C)C(=O)CC[C@H]5[C@@H]3C[C@@H]4S2)c(C)c1	MDA-MB-435	No
COc1cc(-c2csc(NC(=O)Nc3ccc(Cl)c(C(F)(F)F)c3)n2)cc(OC)c1OC	MDA-MB-435	No

INPUT: For COC(=O)C1=CN(CC2=CC(=O)C(C)=CC2=O)C=C(C(=O)OC)C1c1cc(OC)ccc1OC , which call appears in the assay record?
OUTPUT: No

INPUT: So what was the verdict on C=CC(=O)N1C[C@H](COc2nc(Nc3cnn(C)c3)nc3[nH]cc(Cl)c23)[C@@H](OC)C1 in this test?
OUTPUT: No

INPUT: Please indicate how the test categorized C=C1C(=O)O[C@H]2[C@H]1CC/C(COC(=O)/C=C\C(=O)NCc1ccc(Cn3c(=O)sn(CCCI)c3=O)cc1)=C\CC[C@@]1(C)O[C@@H]21 .
OUTPUT: No
